Cited source: paper PMC12283027

- TARGET DESC: Receptor-interacting protein kinase 1 (RIPK1) (Homo sapiens, UniProt Q13546)
- Construct: with VHL
- Sequence (Q13546 whole entry): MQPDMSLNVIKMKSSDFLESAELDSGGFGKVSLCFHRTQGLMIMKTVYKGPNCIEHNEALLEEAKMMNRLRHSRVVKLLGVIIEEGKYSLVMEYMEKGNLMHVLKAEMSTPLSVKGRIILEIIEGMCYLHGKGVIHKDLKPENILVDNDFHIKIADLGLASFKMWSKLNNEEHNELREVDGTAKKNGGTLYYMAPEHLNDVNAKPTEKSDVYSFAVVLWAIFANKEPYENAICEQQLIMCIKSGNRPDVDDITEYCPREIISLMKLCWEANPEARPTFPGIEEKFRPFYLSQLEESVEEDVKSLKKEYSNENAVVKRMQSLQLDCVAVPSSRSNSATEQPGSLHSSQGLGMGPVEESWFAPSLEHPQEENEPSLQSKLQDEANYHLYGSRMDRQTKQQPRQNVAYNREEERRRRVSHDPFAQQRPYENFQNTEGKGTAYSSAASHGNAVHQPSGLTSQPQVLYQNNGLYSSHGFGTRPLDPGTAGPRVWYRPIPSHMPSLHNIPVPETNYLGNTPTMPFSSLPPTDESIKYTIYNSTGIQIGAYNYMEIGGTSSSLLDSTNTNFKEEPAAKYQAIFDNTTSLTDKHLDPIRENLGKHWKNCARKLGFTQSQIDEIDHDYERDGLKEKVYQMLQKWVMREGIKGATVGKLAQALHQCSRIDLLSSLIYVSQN
- Sequence (P40337 whole entry partner): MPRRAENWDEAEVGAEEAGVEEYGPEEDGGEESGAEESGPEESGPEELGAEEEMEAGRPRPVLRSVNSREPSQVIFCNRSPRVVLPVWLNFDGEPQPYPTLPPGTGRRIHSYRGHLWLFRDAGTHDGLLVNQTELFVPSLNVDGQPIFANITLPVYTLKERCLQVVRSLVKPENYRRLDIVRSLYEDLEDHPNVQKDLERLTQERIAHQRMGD
- ASSAY TEXT: cell-based
- Set-up: HiBiT luminescence of CRISPR-tagged endogenous RIPK1 (C-terminal HiBiT) after PROTAC treatment; degradation DC50 and Dmax
- CONDITION: HEK293T-RIPK1-HiBiT cells; read-out: Dmax (HEK293T-RIPK1-HiBiT cell line)
ENDPOINT LABEL: Dmax (%)
Numbers only here, please. The scale is %.

[
  {
    "STRUCTURE NOTATION": "Cc1ncsc1-c1ccc([C@H](C)NC(=O)[C@@H]2C[C@@H](O)CN2C(=O)[C@@H](NC(=O)CN2CCN(C(=O)Cn3cc(-c4cnc(N)c5c(-c6ccc7c(c6)CCN7C(=O)Cc6ccccc6)csc45)cn3)CC2)C(C)(C)C)cc1",
    "Dmax, %": 87
  }
]

**Query** Need Dmax, item Cc1ncsc1-c1ccc([C@H](C)NC(=O)[C@@H]2C[C@@H](O)CN2C(=O)[C@@H](NC(=O)CCCOc2ccc(CCNC(=O)Cn3cc(-c4cnc(N)c5c(-c6ccc7c(c6)CCN7C(=O)Cc6ccccc6)csc45)cn3)cc2)C(C)(C)C)cc1
**Result** 81
